Property: residual activity; scope: individual compounds
- Target system: CAMK1 (human) (UniProt Q14012)
- Sequence (Q14012 whole entry, looked up): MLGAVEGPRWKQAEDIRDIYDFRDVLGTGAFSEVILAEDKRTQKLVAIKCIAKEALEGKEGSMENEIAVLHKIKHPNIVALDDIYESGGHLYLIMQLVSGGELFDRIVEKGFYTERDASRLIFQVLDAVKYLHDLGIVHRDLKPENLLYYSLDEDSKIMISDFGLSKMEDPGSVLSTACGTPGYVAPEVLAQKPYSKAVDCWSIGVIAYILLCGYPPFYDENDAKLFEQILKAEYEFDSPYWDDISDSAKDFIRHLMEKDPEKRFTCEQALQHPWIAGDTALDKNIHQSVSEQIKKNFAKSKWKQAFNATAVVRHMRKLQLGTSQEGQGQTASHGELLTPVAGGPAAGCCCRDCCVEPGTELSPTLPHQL
- Assay info: radiometric filter-binding kinase assay, Kinase HotSpot
- Run conditions: compound 0.5 µM; ATP 10 µM
Just the number plus its unit, please.

# Test smiles, Assay value
records = [
    ("FC(F)(F)c1ccc(/C=C/c2nc(COc3ccc(CCCCn4ccnn4)cc3)co2)cc1", "105%"),
    ("Cn1cc(/C=C2\\C(=O)Nc3ccc(S(N)(=O)=O)cc32)c2ccccc21", "75.7%"),
    ("COc1cc2c(N3CCN(C(=O)Nc4ccc(OC(C)C)cc4)CC3)ncnc2cc1OCCCN1CCCCC1", "101%"),
    ("COc1cccc(-c2cc(=O)c3ccccc3o2)c1N", "98.5%"),
]

Moving on to another compound below.
Query string: I would be grateful if you could share the reported residual activity for `CCOc1cc2ncnc(Nc3cccc(Br)c3)c2cc1OCC` .
Result string: 79.9%

* * *

Property: residual activity; scope: individual molecules
- Target system: PRKCZ (human)
- Assay info: radiometric filter-binding kinase assay, Kinase HotSpot
- Run conditions: compound 0.5 µM; ATP 10 µM
All answers are understood in %, so give the number only.

Some molecules with recorded residual activity:
# Test smiles, Target system, residual activity / %
data = [
    ("N#CCCc1ccc2c(c1)-c1[nH]c3ccc([N+](=O)[O-])cc3c1CC(=O)N2", "PRKCZ (human)", 83.4),
    ("Cn1cc(/C=C2\\C(=O)Nc3ccc(S(N)(=O)=O)cc32)c2ccccc21", "PRKCZ (human)", 105),
    ("O=c1[nH]c2ccccc2n1C1CCN(Cc2ccc(-c3nc4cc5[nH]cnc5cc4nc3-c3ccccc3)cc2)CC1", "PRKCZ (human)", 102),
    ("c1ccc(-c2cnc(Nc3ccc(OCCN4CCCC4)cc3)s2)cc1", "PRKCZ (human)", 96.3),
    ("O=C(c1ccccc1)c1ccc(N2CCOCC2)cc1O", "PRKCZ (human)", 85),
]

Query string: I would be grateful if you could share the reported residual activity for `N#C/C(=C1/Nc2ccccc2S1)c1ccnc(NCCc2cccnc2)n1` .
Result string: 102

Query string: I would be grateful if you could share the reported residual activity for `CCOc1cc2ncnc(Nc3cccc(Br)c3)c2cc1OCC` .
Result string: 97.8

Query string: I would be grateful if you could share the reported residual activity for `Cc1cc(Nc2nc(-c3ccccc3)nc3ccccc23)n[nH]1` .
Result string: 97.1

Query string: I would be grateful if you could share the reported residual activity for `O=c1c2ccccc2[nH]c(=S)n1CCN1CCC(=C(c2ccc(F)cc2)c2ccc(F)cc2)CC1` .
Result string: 102

* * *

- Target system: EPHB2 (human)
- Assay info: radiometric filter-binding kinase assay, Kinase HotSpot
- Run conditions: compound 0.5 µM; ATP 10 µM
Define the label as TRUE when residual activity is strictly less than 90% and as FALSE in all remaining cases.

Consider the worked cases shown below.
# Test smiles, Target system, Classification
rows = [
    ("O=C(c1ccccc1)c1ccc(N2CCOCC2)cc1O", "EPHB2 (human)", "FALSE"),
    ("N#C/C(=C1/Nc2ccccc2S1)c1ccnc(NCCc2cccnc2)n1", "EPHB2 (human)", "FALSE"),
    ("COc1cc2c(Nc3ccc(Br)cc3F)ncnc2cc1OCC1CCN(C)CC1", "EPHB2 (human)", "TRUE"),
    ("COc1cc2c(N3CCN(C(=O)Nc4ccc(OC(C)C)cc4)CC3)ncnc2cc1OCCCN1CCCCC1", "EPHB2 (human)", "FALSE"),
    ("O=c1c(-c2ccc(F)cc2)c(-c2ccncc2)[nH]n1-c1ccc(Cl)cc1", "EPHB2 (human)", "FALSE"),
    ("Nc1ncnc2c1cnn2-c1ccccc1", "EPHB2 (human)", "FALSE"),
]

Query string: # strict comparison: is reported residual activity < 90%? input = `O=c1cc(N2CCOCC2)oc2c(-c3ccccc3)cccc12`
Result string: FALSE

Query string: # strict comparison: is reported residual activity < 90%? input = `CCc1nc(-c2ccc(OC)cc2)[nH]c1-c1ccncc1`
Result string: FALSE

Query string: # strict comparison: is reported residual activity < 90%? input = `O=S(=O)(NCCNC/C=C/c1ccc(Br)cc1)c1cccc2cnccc12`
Result string: TRUE

Query string: # strict comparison: is reported residual activity < 90%? input = `N/C(=N\N=C/c1ccc(-c2cccc([N+](=O)[O-])c2)o1)N[N+](=O)[O-]`
Result string: TRUE

* * *

Property: residual activity; scope: individual molecules
- Target system: GRK4 (human)
- Assay info: radiometric filter-binding kinase assay, Kinase HotSpot
- Run conditions: compound 0.5 µM; ATP 10 µM
All answers are understood in %, so give the number only.

Query string: I would be grateful if you could share the reported residual activity for `c1ccc(-c2cnc(Nc3ccc(OCCN4CCCC4)cc3)s2)cc1` .
Result string: 98.3

* * *

- Target system: TSSK2 (human) (UniProt Q96PF2)
- Sequence (Q96PF2 whole entry, looked up): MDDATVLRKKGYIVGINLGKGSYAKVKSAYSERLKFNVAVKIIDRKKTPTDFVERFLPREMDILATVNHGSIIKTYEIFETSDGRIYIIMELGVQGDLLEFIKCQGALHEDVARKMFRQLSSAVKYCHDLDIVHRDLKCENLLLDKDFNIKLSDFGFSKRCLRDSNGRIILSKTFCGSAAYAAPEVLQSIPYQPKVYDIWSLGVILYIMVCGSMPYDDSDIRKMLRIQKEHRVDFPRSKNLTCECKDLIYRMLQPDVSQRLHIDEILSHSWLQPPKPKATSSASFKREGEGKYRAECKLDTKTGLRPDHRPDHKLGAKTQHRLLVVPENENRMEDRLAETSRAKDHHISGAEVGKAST
- Assay info: radiometric filter-binding kinase assay, Kinase HotSpot
- Run conditions: compound 0.5 µM; ATP 10 µM
Measurement type: residual activity (%)
All answers are understood in %, so give the number only.

Some molecules with recorded residual activity:
# Test smiles, Unit symbol, residual activity
records = [
    ("O=S(=O)(NCCNC/C=C/c1ccc(Br)cc1)c1cccc2cnccc12", "%", 104),
    ("Cc1cc(Nc2nc(-c3ccccc3)nc3ccccc23)n[nH]1", "%", 105),
    ("c1ccc(-c2cnc(Nc3ccc(OCCN4CCCC4)cc3)s2)cc1", "%", 89),
    ("N#Cc1c(NC(=O)c2cccc3ccccc23)sc2c1CCCC2", "%", 104),
    ("CCc1nc(-c2ccc(OC)cc2)[nH]c1-c1ccncc1", "%", 98.7),
    ("O=c1c(-c2ccc(F)cc2)c(-c2ccncc2)[nH]n1-c1ccc(Cl)cc1", "%", 80),
    ("O=C1NC(=O)c2c1c1c3ccccc3[nH]c1c1[nH]c3cc(Br)ccc3c21", "%", 96.9),
    ("O=c1c2ccccc2[nH]c(=S)n1CCN1CCC(=C(c2ccc(F)cc2)c2ccc(F)cc2)CC1", "%", 101),
]

Query string: Item: `N#CCCc1ccc2c(c1)-c1[nH]c3ccc([N+](=O)[O-])cc3c1CC(=O)N2` Test system: TSSK2 (human) (UniProt Q96PF2) Read-out: residual activity Value: ?
Result string: 78.7

Query string: Item: `N#C/C(=C1/Nc2ccccc2S1)c1ccnc(NCCc2cccnc2)n1` Test system: TSSK2 (human) (UniProt Q96PF2) Read-out: residual activity Value: ?
Result string: 102

* * *

- Target system: MAPKAPK3 (human) (UniProt Q16644)
- Sequence (Q16644 whole entry, looked up): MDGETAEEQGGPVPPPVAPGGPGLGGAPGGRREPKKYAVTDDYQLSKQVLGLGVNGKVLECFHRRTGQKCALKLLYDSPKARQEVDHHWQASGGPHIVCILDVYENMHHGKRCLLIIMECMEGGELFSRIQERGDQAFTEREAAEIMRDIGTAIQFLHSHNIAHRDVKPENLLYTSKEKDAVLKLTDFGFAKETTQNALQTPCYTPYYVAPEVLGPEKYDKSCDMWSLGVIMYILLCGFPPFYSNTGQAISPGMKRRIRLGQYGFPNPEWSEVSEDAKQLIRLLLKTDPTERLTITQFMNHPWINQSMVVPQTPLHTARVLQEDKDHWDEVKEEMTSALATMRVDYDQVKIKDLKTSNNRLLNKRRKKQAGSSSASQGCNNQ
- Assay info: radiometric filter-binding kinase assay, Kinase HotSpot
- Run conditions: compound 0.5 µM; ATP 10 µM
Measurement type: residual activity (%)
All answers are understood in %, so give the number only.

# Test smiles, residual activity / %
data = [
    ("CCc1nc(-c2ccc(OC)cc2)[nH]c1-c1ccncc1", 102),
]

Query string: I would be grateful if you could share the reported residual activity for `O=c1[nH]c2ccccc2n1C1CCN(Cc2ccc(-c3nc4cc5[nH]cnc5cc4nc3-c3ccccc3)cc2)CC1` .
Result string: 104

Query string: I would be grateful if you could share the reported residual activity for `N#CCCc1ccc2c(c1)-c1[nH]c3ccc([N+](=O)[O-])cc3c1CC(=O)N2` .
Result string: 96.8

* * *

Property: residual activity; scope: individual molecules
- Target system: TTK (human) (UniProt P33981)
- Sequence (P33981 whole entry, looked up): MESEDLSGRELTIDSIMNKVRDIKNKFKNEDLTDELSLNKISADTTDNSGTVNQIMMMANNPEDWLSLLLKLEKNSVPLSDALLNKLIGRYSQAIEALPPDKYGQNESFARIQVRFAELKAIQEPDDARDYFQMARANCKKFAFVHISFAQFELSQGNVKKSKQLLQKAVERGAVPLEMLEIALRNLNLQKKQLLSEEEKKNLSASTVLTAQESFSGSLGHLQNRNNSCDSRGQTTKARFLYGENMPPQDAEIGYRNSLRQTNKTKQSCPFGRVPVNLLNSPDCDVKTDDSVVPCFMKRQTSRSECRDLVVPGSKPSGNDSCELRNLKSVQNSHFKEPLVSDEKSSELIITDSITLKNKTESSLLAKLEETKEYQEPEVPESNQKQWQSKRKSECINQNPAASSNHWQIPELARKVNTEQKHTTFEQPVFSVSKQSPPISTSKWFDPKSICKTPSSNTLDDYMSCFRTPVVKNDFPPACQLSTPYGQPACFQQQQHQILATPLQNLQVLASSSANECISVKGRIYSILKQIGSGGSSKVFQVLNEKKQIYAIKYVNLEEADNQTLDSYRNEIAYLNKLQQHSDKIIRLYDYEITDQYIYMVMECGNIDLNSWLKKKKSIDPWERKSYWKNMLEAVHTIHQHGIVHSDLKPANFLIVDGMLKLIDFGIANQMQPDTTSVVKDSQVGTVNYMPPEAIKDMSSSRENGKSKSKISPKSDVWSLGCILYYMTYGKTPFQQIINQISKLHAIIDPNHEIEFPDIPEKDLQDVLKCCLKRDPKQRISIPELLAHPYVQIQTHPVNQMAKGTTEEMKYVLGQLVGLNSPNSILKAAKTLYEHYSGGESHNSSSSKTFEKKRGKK
- Assay info: radiometric filter-binding kinase assay, Kinase HotSpot
- Run conditions: compound 0.5 µM; ATP 10 µM
All answers are understood in %, so give the number only.

Some molecules with recorded residual activity:
# Test smiles, Target system, residual activity (%)
data = [
    ("COc1cc2ncnc(Nc3ccc(O)c(Br)c3)c2cc1OC", "TTK (human) (UniProt P33981)", 105),
    ("CCOc1cc2ncnc(Nc3cccc(Br)c3)c2cc1OCC", "TTK (human) (UniProt P33981)", 91.2),
    ("CCc1nc(-c2ccc(OC)cc2)[nH]c1-c1ccncc1", "TTK (human) (UniProt P33981)", 105),
    ("O=c1c(-c2ccc(F)cc2)c(-c2ccncc2)[nH]n1-c1ccc(Cl)cc1", "TTK (human) (UniProt P33981)", 110),
    ("O=S(=O)(NCCNC/C=C/c1ccc(Br)cc1)c1cccc2cnccc12", "TTK (human) (UniProt P33981)", 99.7),
]

Query string: Item: `O=C1NC(=O)c2c1c1c3ccccc3[nH]c1c1[nH]c3cc(Br)ccc3c21` Test system: TTK (human) (UniProt P33981) Read-out: residual activity Value: ?
Result string: 98.7

Query string: Item: `COc1cc2c(Nc3ccc(Br)cc3F)ncnc2cc1OCC1CCN(C)CC1` Test system: TTK (human) (UniProt P33981) Read-out: residual activity Value: ?
Result string: 95.1

Query string: Item: `O=C1NC(=O)c2cc(Nc3ccc(F)cc3)c(Nc3ccc(F)cc3)cc21` Test system: TTK (human) (UniProt P33981) Read-out: residual activity Value: ?
Result string: 95.4

Query string: Item: `O=C(c1ccccc1)c1ccc(N2CCOCC2)cc1O` Test system: TTK (human) (UniProt P33981) Read-out: residual activity Value: ?
Result string: 104

Query string: Item: `O=c1cc(N2CCOCC2)oc2c(-c3ccccc3)cccc12` Test system: TTK (human) (UniProt P33981) Read-out: residual activity Value: ?
Result string: 103

Query string: Item: `O=C(O)c1ccc2c3c1cccc3c(=O)n1c3ccccc3nc21` Test system: TTK (human) (UniProt P33981) Read-out: residual activity Value: ?
Result string: 81

Ref: the kinase profiling compilation of Christmann-Franck et al. (2016)
